Values from patent US12037395

Overview of reported kon across a group of binders:
Biological target: T1, cynomolgus monkey PD-1-his protein (Acro biosystems, #PD-1-C5223) (cynomolgus monkey, UniProt B0LAJ3 25-170)
T1 construct: Bought protein; also called Cynomolgus PD-1; Cynomolgus PD1
T1 sequence (B0LAJ3 entry or part of it limits assumed): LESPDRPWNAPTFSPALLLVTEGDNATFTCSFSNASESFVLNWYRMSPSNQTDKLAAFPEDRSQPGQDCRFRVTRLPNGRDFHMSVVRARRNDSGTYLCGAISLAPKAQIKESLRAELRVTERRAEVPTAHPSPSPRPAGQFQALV
Experiment: SPR (Biacore T200), antibody captured, antigen flowed
MEASURED_METRIC: kon

{"BINDER": "mouse anti-PD-1 monoclonal antibody C1C5 (antibody, mouse IgG1, kappa, V domains shown, Purified from hybridoma; Constant regions tied only generically to 'mouse antibodies') VH: QIQLVQSGPELKKPGETVKISCKASGYTFTNYGINWVKQAPGKGLKWMGWINTYSGEPTYSDDFKGRFAFSLETSASTAYLQINNLKNEDTSTYFCVRQGDFDYEDAMDYWGQGTSVTVSS VL: DVLMTQSPLSLPVSLGDQASISCRSSQSIVHSNGHIYLEWYLQKPGQSPKLLIYKVSKRFSGVPDRFSGSGSGTDFTLKISRVEAEDLGVYYCFQGSHGTFGGGTKLEIKR", "REPORTED_RESULT": "322000 M⁻¹ s⁻¹"}
{"BINDER": "mouse anti-PD-1 monoclonal antibody C1E2 (antibody, mouse IgG1, kappa, V domains shown, Purified from hybridoma; Constant regions tied only generically to 'mouse antibodies') VH: QVQLQQSGAELVRPGTSVKISCKASGYTFTNYWLGWVKQRPGHGLEWIGDIYPGGGYTNYNENFKGKATLTADTSSSTAYMQLSSLTSEDSAVFFCARGYGTNYWYFDVWGAGTTVTVSS VL: SIVMTQTPKFLLVSAGDRVTITCKASQSVSNDVAWYQQKPGQSPKLLIYYAFHRYTGVPDRFTGSGYGTDFTFTISTVQAEDLAVYFCQQDYSSPYTFGGGTKLEIKR", "REPORTED_RESULT": "238000 M⁻¹ s⁻¹"}
{"BINDER": "mouse anti-PD-1 monoclonal antibody D1F2 (antibody, mouse IgG1, kappa, V domains shown, Purified from hybridoma; Constant regions tied only generically to 'mouse antibodies') VH: EVMLVESGGGLVKPGGSLKLSCAASGFTFSSYTMSWVRQTPEKRLEWVATISGGGSNIYYPDSVEGRFTVSRDNARNTLYLHMSSLRSEDTALYYCVLNYAYAMDYWGQGTSVTVSS VL: DIQMTQTTSSLSASLGDRVTISCRASQDISNFLNWYQQKPDGTVKLLIYYTSRLQSGVPSRFSGTGSGTDYSLTISNLEQEDLATYFCQQGSSLPWTFGGGTKLEIKR", "REPORTED_RESULT": "200000 M⁻¹ s⁻¹"}
{"BINDER": "mouse anti-PD-1 monoclonal antibody C1F5 (antibody, mouse IgG1, kappa, V domains shown, Purified from hybridoma; Constant regions tied only generically to 'mouse antibodies') VH: EVQLVESGGGLVKPGGSLKLSCAASGFAFSSYDMSWVRQTPEKRLEWVAYITGGGSSSFYPDTVKGRFTISRDNSKNTLYLQMTSLRSEDTAMYYCASPYLSYFDYWGQGTTLTVSS VL: DIVLTQSPATLSVTPGDSVSLSCRASQSISNNLHWYQQKSHESPRLLIKYGSQSMSGIPSRFSGSGSGTDFTLVINSVETEDFGMYFCQQSNSWPLTFGAGTKLELKR", "REPORTED_RESULT": "138000 M⁻¹ s⁻¹"}
{"BINDER": "mouse anti-PD-1 monoclonal antibody C1A1 (antibody, mouse IgG1, kappa, V domains shown, Purified from hybridoma; Constant regions tied only generically to 'mouse antibodies') VH: QVTLKESGPGILKPSQTLSLTCSFSGFSLSTSGMGVGWIRQPSGKGLEWLAHIWWDDDKFYNPSLKSQLTISKDTSRNQVFLKITSVDTADTATYYCARTGGFITTGYWYFDVWGAGTTVTVSS VL: DIQMTQTTSSLSASLGDRVTISCRASQDISNYLIWYQQKTDGTLKLLIYYTSRLHSGVPSRFSGSGSGTDYSLTISNLEQEDIATYFCQQHKTLPWTFGGGTKLEIKR", "REPORTED_RESULT": "348000 M⁻¹ s⁻¹"}
{"BINDER": "mouse anti-PD-1 monoclonal antibody D1A1 (antibody, mouse IgG1, kappa, V domains shown, Purified from hybridoma; Constant regions tied only generically to 'mouse antibodies') VH: EVMLVESGGGLVKPGGSLKLSCAASGFTFSNYAMSWVRQTPEKRLEWVATISGGGGNIYYPDSVKGRFTISRDNARNTLYLQMSSLRSEDTALYYCASPYANYVWYLDVWGAGTTVTVSS VL: DIQMTQTTSSLSASLGDRVTISCRASQDISNYLNWYQQKPDGTVKLLIYYTSRLHSGVPSRFSGSGSGTDFSLTISNLEEEDIATYFCQQSNALPWTFGGGTKLEIKR", "REPORTED_RESULT": "210000 M⁻¹ s⁻¹"}
